Target: human dopamine D4 (Homo sapiens, UniProt P21917)
Construct: purchased BioSignal, Inc. (Montreal, Canada)
Sequence (P21917 1-419): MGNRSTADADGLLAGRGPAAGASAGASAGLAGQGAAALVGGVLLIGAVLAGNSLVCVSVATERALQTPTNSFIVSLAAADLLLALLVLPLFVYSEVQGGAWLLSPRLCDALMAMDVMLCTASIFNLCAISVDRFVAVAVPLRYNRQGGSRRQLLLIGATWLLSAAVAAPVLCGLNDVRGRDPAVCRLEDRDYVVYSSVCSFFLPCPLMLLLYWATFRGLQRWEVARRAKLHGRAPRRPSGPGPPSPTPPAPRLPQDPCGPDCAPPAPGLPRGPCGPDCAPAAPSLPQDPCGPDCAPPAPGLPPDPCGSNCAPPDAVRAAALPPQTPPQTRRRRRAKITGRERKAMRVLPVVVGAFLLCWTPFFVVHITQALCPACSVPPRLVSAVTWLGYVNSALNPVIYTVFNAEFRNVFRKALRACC
Assay: Radioligand binding, dopamine D4 receptor
Details: Table 10; Ki hD4 divided by Ki hGAL3
property_name: selectivity ratio hD4

• CN(CCc1c[nH]c2ccccc12)c1nc(Nc2ccc(F)c(F)c2)cc(N2CCCCC2)n1 [Example 15] = >30
• COc1cccc(Nc2cc(N3CCCCC3)nc(N(C)CCc3c[nH]c4ccccc34)n2)c1 [Example 17] = >100
• O=C1C(=Nc2cccc(C(F)(F)F)c2)c2ccccc2N1c1ccccc1 [Example 92] = >100
• Cc1ccc(Nc2cc(N3CCCCC3)nc(N(C)CCc3ccccc3)n2)cc1 [Example 22] = >100
• O=C1C(=Nc2ccc(C(F)(F)F)cc2)c2ccccc2N1c1ccccc1 [Example 95] = >100
• Cc1ccc(Nc2cc(N(C)C)nc(N(C)CCc3c[nH]c4ccccc34)n2)cc1 [Example 77] = 6
• O=C1C(=Nc2ccc(Br)cc2)c2ccccc2N1c1ccccc1 [Example 98] = >100
• O=C1C(=Nc2ccc(Cl)cc2)c2ccccc2N1c1ccccc1 [Example 97] = >100
• Cc1ccc(Nc2cc(N3CCCCC3)nc(N(C)CCc3c[nH]c4ccccc34)n2)cc1 [Example 11] = >30

----------
// reported pKi per item
Molecular target: human dopamine D2 (Homo sapiens, UniProt P14416)
Construct: purchased BioSignal, Inc. (Montreal, Canada)
Sequence (P14416 whole entry): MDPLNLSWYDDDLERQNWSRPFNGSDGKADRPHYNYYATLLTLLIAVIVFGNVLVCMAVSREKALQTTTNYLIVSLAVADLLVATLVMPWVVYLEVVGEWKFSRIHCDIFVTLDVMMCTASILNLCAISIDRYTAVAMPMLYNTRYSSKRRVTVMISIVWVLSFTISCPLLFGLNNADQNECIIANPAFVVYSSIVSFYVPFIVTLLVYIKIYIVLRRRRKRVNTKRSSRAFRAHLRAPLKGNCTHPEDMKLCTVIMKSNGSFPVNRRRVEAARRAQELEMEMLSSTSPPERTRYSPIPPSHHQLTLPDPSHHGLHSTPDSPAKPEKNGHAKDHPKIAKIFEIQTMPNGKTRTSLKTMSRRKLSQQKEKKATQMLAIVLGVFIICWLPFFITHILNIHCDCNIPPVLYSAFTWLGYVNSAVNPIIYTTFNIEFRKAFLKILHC
Assay: Radioligand binding, dopamine D2 receptor
Conditions: Table 9; read-out: hD2 Ki
pKi: −log10 of the molar value.
property_name: pKi

- Cc1ccc(Nc2cc(N3CCCCC3)nc(N(C)CCc3ccccc3)n2)cc1: 5.82
- O=C1C(=Nc2ccc(C(F)(F)F)cc2)c2ccccc2N1c1ccccc1: 5.01
- CN(C)c1cc(Nc2ccc(Cl)c(Cl)c2)nc(Nc2ccccc2)n1: 4.57
- Cc1ccc(Nc2cc(N3CCCCC3)nc(N(C)CCc3c[nH]c4ccccc34)n2)cc1: 6.11
- CN(CCc1c[nH]c2ccccc12)c1nc(Nc2ccc(F)c(F)c2)cc(N2CCCCC2)n1: 5.66
- O=C1C(=Nc2cccc(Cl)c2)c2ccccc2N1c1ccccc1: 5.20
- Cc1ccc(Nc2cc(N3CCCCC3)nc(N3CCN(c4ncccc4C(F)(F)F)CC3)n2)cc1: 5.60
- Cc1ccc(Nc2cc(N(C)C)nc(N(C)CCc3c[nH]c4ccccc34)n2)cc1: 6.04
- COc1cccc(Nc2cc(N3CCCCC3)nc(N(C)CCc3c[nH]c4ccccc34)n2)c1: 5.74
- O=C1C(=Nc2ccc(Br)cc2)c2ccccc2N1c1ccccc1: 5.42
